System: HEK-293T
Experiment: Multiplex assay against HEK293T
Assay type: toxicity, cell-based
Settings: human, 24 h, 1 µM, compound concentration 1 uM, replicate 2
Could you label it True if measured Population Healthy Nuclei (%) is 80% or higher, and False otherwise?

| Compound | Category |
| --- | --- |
| COc1cc2nc(N3CCN(C(=O)COc4c(OC)cccc4C(C)C)CC3)nc(N)c2cc1OC.Cl.Cl | True |
| O=C(O)CCC/C=C\CC1C(O)CC(O)C1/C=C/C(O)COc1cccc(Cl)c1 (centres undefined) | True |
| O=c1nc2[nH]c3ccccc3nc-2c(=O)[nH]1 | True |
| N[C@](CC1c2ccccc2Oc2ccccc21)(C(=O)O)[C@H]1C[C@@H]1C(=O)O | True |
| Cc1cc(O)c(-c2ccc([C@@H](C)CN(C)C)cc2)c2c1[nH]c(=O)c1sccc12 | False |
| Cc1cc(NC(=O)NCCN2CCC(O)(Cc3ccccc3)CC2)c2ccccc2n1 | False |

====

Test system: U2OS
Assay: Multiplex assay against U2OS
Assay type: toxicity, cell-based
Settings: human, 24 h, 10 µM, compound concentration 10 uM, replicate 2
Non-standard residues stand in square brackets, D forms with d. Residues, ends and D or L forms follow the SMILES beside them.
Okay, here is how we bin by Population Healthy Nuclei (%): bottom bin = under 60%, middle bin = from 60% up to 80%, top bin = 80% and over

| Compound | Category |
| --- | --- |
| Nc1nc(-c2ccco2)c2cnn(Cc3ccccc3F)c2n1 | middle bin |
| CC(C)C[C@@H]1NC(=O)[C@@H](C(C)C)NC(=O)[C@@H]2CCCN2C(=O)[C@@H](CC(=O)O)NC(=O)[C@@H](Cc2c[nH]c3ccccc23)NC1=O [BQ-123] (cyclo(L[dW][dD]P[dV])) | middle bin |
| CC(C)C[C@H](CO)Nc1nc(S[C@@H](C)c2ccccc2)nc2nc(N)sc12 | top bin |
| CCc1nn2c(C)cc(C)nc2c1Cc1ccc(-c2nnc(C3CCNCC3)o2)cc1 | middle bin |
| Cc1ccc(OCC(O)C(C)NC(C)C)c2c1CCC2.Cl (centres undefined) | middle bin |
| OCCCNc1cc(-c2ccnc(Nc3cccc(Cl)c3)n2)ccn1 | bottom bin |

====

System: Fibroblast
Experiment: Multiplex assay against human fibroblast
Type: toxicity, cell-based
Details: 48 h, 1 µM, compound concentration 1 uM, replicate 1
Non-standard residues stand in square brackets, D forms with d. Residues, ends and D or L forms follow the SMILES beside them.
Observation type: Population Fragmented Nuclei (%)

| Molecule | Value observed |
| --- | --- |
| CCn1c(-c2nc3cc(C(=O)N4CCCC(N)C4)ccc3n2C)cc2ccccc21.Cl (stereo not drawn) | 23% |
| S=C(NCCCc1c[nH]cn1)NCCCN(Cc1ccc(Cl)c(Cl)c1)c1ccc(Br)cn1 | 27% |
| COc1c(Nc2ccc(S(C)(=O)=O)nc2C)ncnc1OC1CCN(C(=O)OC(C)C)CC1 | 25% |
| CC(C)C[C@@H]1NC(=O)[C@@H](C(C)C)NC(=O)[C@@H]2CCCN2C(=O)[C@@H](CC(=O)O)NC(=O)[C@@H](Cc2c[nH]c3ccccc23)NC1=O [BQ-123] (cyclo(L[dW][dD]P[dV])) | 18% |
| N[C@](CC1c2ccccc2Oc2ccccc21)(C(=O)O)[C@H]1C[C@@H]1C(=O)O | 17% |
| O=C(NCCNCC(O)COc1ccc(O)cc1)N1CCOCC1.O=C(NCCNCC(O)COc1ccc(O)cc1)N1CCOCC1.O=C(O)/C=C/C(=O)O (stereo not drawn) [XAMOTEROL FUMARATE] | 27% |
| Cc1sc2c(c1C)C(c1ccc(Cl)cc1)=N[C@H](CC(=O)OC(C)(C)C)c1nnc(C)n1-2 | 19% |
| Cc1ccc(OCC(O)C(C)NC(C)C)c2c1CCC2.Cl (stereo not drawn) | 16% |
| CC(C)(C)c1ccc(CSc2cnn(C(C)(C)C)c(=O)c2Cl)cc1 | 27% |
| OCCCNc1cc(-c2ccnc(Nc3cccc(Cl)c3)n2)ccn1 | 27% |
| C[C@H](NC(=O)CNC(=O)c1cccc(Cl)c1)c1ccccc1 | 20% |
| CN(C)C/C=C/C(=O)Nc1ccc(C(=O)N2CCCC(Nc3ncc(Cl)c(-c4c[nH]c5ccccc45)n3)C2)cc1 (stereo not drawn) | 33% |
| COCCCN1CCC(NC(=O)c2cc(Cl)c(N)c3c2OCC3)CC1 [PRUCALOPRIDE] | 25% |
| CSc1nc(NC2CCCC2)c([N+](=O)[O-])c(NC2CCCC2)n1 | 22% |
| CN1CCN(c2ccc(Nc3c4ccccc4nc4ccccc34)cc2)CC1.Cl.Cl.O | 23% |
| CCc1nn2c(C)cc(C)nc2c1Cc1ccc(-c2nnc(C3CCNCC3)o2)cc1 | 21% |
| COc1cc(OC2CCN(C(C)=O)CC2)ccc1C(=O)N1CCC(N2C(=O)OCc3ccccc32)CC1 | 14% |
| Cc1c(Cc2ccc3ccccc3n2)c2cc(F)ccc2n1CC(=O)O | 15% |

====

Tested on: Fibroblast
Experiment: Multiplex assay against human fibroblast
Format: toxicity, cell-based
Details: 12 h, 1 µM, compound concentration 1 uM, replicate 1
Values of Population Mitochondria Different-Phenotype (%) strictly less than 5% map to True, and values of at least 5% map to False.

| Molecule | Category |
| --- | --- |
| CCn1c(-c2nc3cc(C(=O)N4CCCC(N)C4)ccc3n2C)cc2ccccc21.Cl (stereo not given) | True |
| C=CCN1C[C@H](C(=O)N(CCCN(C)C)C(=O)NCC)C[C@@H]2c3cccc4[nH]cc(c34)C[C@H]21 | True |
| CC(C)(O)C(=O)N1CCN(c2ccc(C(F)(F)F)c(C3=C(c4c[nH]c5ccccc45)C(=O)NC3=O)c2)CC1 | False |
| CCCCC[C@H](O)/C=C/[C@H]1[C@H](O)CC(=O)[C@@H]1CCCCCCC(=O)O | True |

====

Tested on: U2OS
Assay: Multiplex assay against U2OS
Assay type: toxicity, cell-based
Details: human, 24 h, 1 µM, compound concentration 1 uM, replicate 1
Non-standard residues stand in square brackets, D forms with d. Residues, ends and D or L forms follow the SMILES beside them.
Overview of recorded Population Apoptotic (%) for various compounds
Observation type: Population Apoptotic (%)

| Compound | Value observed |
| --- | --- |
| COCCCN1CCC(NC(=O)c2cc(Cl)c(N)c3c2OCC3)CC1 [PRUCALOPRIDE] | 80 |
| CN1C[C@H](C(=O)N[C@]2(C)O[C@@]3(O)[C@@H]4CCCN4C(=O)[C@H](Cc4ccccc4)N3C2=O)C[C@@H]2c3cccc4[nH]cc(c34)C[C@H]21.CS(=O)(=O)O [DIHYDROERGOTAMINE MESYLATE] | 89 |
| O=C(Nc1cc(-c2ccccc2)nn1-c1ccccc1F)c1ccc([N+](=O)[O-])cc1 | 91 |
| COc1ccc2c(c1OCc1ccccc1)C[C@@H](C(=O)O)N(C(=O)C(c1ccccc1)c1ccccc1)C2 | 87 |
| Cc1c(Cc2ccc3ccccc3n2)c2cc(F)ccc2n1CC(=O)O | 96 |
| CCCCC[C@H](O)/C=C/[C@H]1[C@H](O)CC(=O)[C@@H]1CCCCCCC(=O)O | 91 |
| O=C(NCCNCC(O)COc1ccc(O)cc1)N1CCOCC1.O=C(NCCNCC(O)COc1ccc(O)cc1)N1CCOCC1.O=C(O)/C=C/C(=O)O (configuration not stated) [XAMOTEROL FUMARATE] | 85 |
| Cc1sc2c(c1C)C(c1ccc(Cl)cc1)=N[C@H](CC(=O)OC(C)(C)C)c1nnc(C)n1-2 | 77 |
| CCn1c(-c2nc3cc(C(=O)N4CCCC(N)C4)ccc3n2C)cc2ccccc21.Cl (configuration not stated) | 82 |
| COC(c1ccccc1)(c1ccccc1)[C@H](Oc1nc(C)cc(C)n1)C(=O)O | 95 |
| COc1cc(C(=O)N2CC[C@@H](O)[C@@H](N)C2)cc2nc(-c3cc4ccccc4n3CC3CC3)n(C)c12.Cl | 78 |
| CC(C)C[C@H](CO)Nc1nc(S[C@@H](C)c2ccccc2)nc2nc(N)sc12 | 81 |
| CSc1nc(NC2CCCC2)c([N+](=O)[O-])c(NC2CCCC2)n1 | 87 |
| COc1cc(Nc2ncc3c(n2)-c2ccc(Cl)cc2C(c2c(F)cccc2OC)=NC3)ccc1C(=O)O | 78 |
| COc1cc2nc(N3CCN(C(=O)COc4c(OC)cccc4C(C)C)CC3)nc(N)c2cc1OC.Cl.Cl | 84 |
| CC(C)C[C@@H]1NC(=O)[C@@H](C(C)C)NC(=O)[C@@H]2CCCN2C(=O)[C@@H](CC(=O)O)NC(=O)[C@@H](Cc2c[nH]c3ccccc23)NC1=O [BQ-123] (cyclo(L[dW][dD]P[dV])) | 69 |
| Cc1ccc(OCC(O)C(C)NC(C)C)c2c1CCC2.Cl (configuration not stated) | 88 |
| COCCn1c(C)c(C)s/c1=N\C(=O)C1C(C)(C)C1(C)C | 89 |
| C[C@@H]1CC(=O)Nc2cccc(-c3ccc4c(c3)c(-c3cnn(C)c3)nn4C)c2N1 | 95 |
| Cn1cc(C(=O)OCC2CCN(CCNS(C)(=O)=O)CC2)c2ccccc21 | 95 |
| Cc1nn(C)c2nc(NNC(=O)Nc3cc(Cl)nc(Cl)c3)cc(C(C)C)c12 | 80 |
| O=c1nc2[nH]c3ccccc3nc-2c(=O)[nH]1 | 73 |
| Nc1nc(CC(=O)Nc2ccc(CCNC[C@H](O)c3ccccc3)cc2)cs1 | 82 |
| COc1ccc2[nH]c(I)c(CCNC(C)=O)c2c1 | 86 |
| Cl.Cl.OCCOCCN1CCN(C(c2ccccc2)c2ccc(Cl)cc2)CC1 (configuration not stated) [HYDROXYZINE HYDROCHLORIDE] | 96 |
| CC(C)(O)C(=O)N1CCN(c2ccc(C(F)(F)F)c(C3=C(c4c[nH]c5ccccc45)C(=O)NC3=O)c2)CC1 | 89 |
| CCC(=O)OCC(=O)[C@@]1(OC(=O)CC)[C@@H](C)C[C@H]2[C@@H]3CCC4=CC(=O)C=C[C@]4(C)[C@@]3(Cl)[C@@H](O)C[C@@]21C [BECLOMETHASONE DIPROPIONATE] | 78 |
| C=CCN1C[C@H](C(=O)N(CCCN(C)C)C(=O)NCC)C[C@@H]2c3cccc4[nH]cc(c34)C[C@H]21 | 82 |
| O=c1ccc2ccc(OCCCCN3CCN(c4cccc5sccc45)CC3)cc2[nH]1 | 68 |
| C[C@H](NC(=O)CNC(=O)c1cccc(Cl)c1)c1ccccc1 | 79 |
| Cc1cc(O)c(-c2ccc([C@@H](C)CN(C)C)cc2)c2c1[nH]c(=O)c1sccc12 | 92 |
| Cc1cc(-c2ccc3c(c2)CC[C@H]3N2CC3(CCN(C(=O)Cc4cn5cc(C)sc5n4)CC3)C2)ncn1 | 69 |
